Target: T1, Human CXCR7 (human, UniProt P25106 1-362)
T1 construct: see assay field; also called hCXCR7
T1 sequence (P25106 whole entry): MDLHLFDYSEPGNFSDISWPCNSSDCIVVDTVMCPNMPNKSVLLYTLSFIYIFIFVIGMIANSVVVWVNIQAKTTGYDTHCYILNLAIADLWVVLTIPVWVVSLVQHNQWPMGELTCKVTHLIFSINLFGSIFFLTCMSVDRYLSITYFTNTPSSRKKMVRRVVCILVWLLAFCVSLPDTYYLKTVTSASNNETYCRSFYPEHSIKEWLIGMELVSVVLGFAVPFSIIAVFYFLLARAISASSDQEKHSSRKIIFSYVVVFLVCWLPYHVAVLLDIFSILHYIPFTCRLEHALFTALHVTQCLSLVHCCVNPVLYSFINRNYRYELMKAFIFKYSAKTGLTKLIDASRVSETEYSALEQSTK
Assay: phage ELISA, hCXCR7 VLPs over non-transfected control VLPs
outcome measure: Fold CXCR7-LP/Null-LP (fold)
Give bare numbers, in fold.

Some solved cases for reference:
# lookup: Fold CXCR7-LP/Null-LP of Nanobody 07B11 with Tag-1 (VHH, periplasmic extract in the screening FACS) VHH: EVQLVESGGNLVQAGGSLGLSCAASVSISSIHIMGWYRQAPGKQRDLVATITSGGSTAYADSVKGRFTVSKDNAKNTVYLQMDSLKPEDTSVYYCAAEVRNGVFGKWNHYWGQGTQVTVSS
4.1

Field request: Fold CXCR7-LP/Null-LP | item: Nanobody 08A05 with Tag-1 (VHH, periplasmic extract in the screening FACS) VHH: EVQLVESGGGLVQAGDSLRLSCAASGLTFSNYDMGWFRQAPGKEREFVGASWWSGGAPYYSDSVKGRFTISRDNAKNTVYLQANSLRPEDTAVYYCAAKRLRSFASGGSYDYWGQGTQVTVSS
2.4

Report Fold CXCR7-LP/Null-LP for Nanobody 01C10 with Tag-1 (VHH) VHH: EVQLVESGGGLVQTGASLRLSCAASGRTFSNYAMGWFRQAPGKERERVAAITPRAFTTYYADSVKGRFTISRDNAKNTAYLQMVSLKPEDTAVYYCAAQLVGSGSNLGRQESYAYWGQGTQVTVSS please.
4.2

Using the record for Nanobody 08A10 with Tag-1 (VHH, periplasmic extract in the screening FACS) VHH: EVQLVESGGGLVQAGGSLRLSCAASGSIFSIAAMGWYRQATGKQRELVATITDGGTTTYADSVKGRVTISRDRSANTVYLAMNNLKPDDTAVYYCYAYLRYTSRVPGDNYWGQGTQVTVSS , report its Fold CXCR7-LP/Null-LP.
17.3

API: the following record is the query input.
I have this binder here, Nanobody 07C03 with Tag-1 (VHH, periplasmic extract in the screening FACS) VHH: EVQLVESGGGLVQAGESLTLSCAASGRTLSAYIMGWFRQAPGKEREFVAGIWSGGYTHLADSAKGRFSISRDNAKNTVYLQMNGLKPEDTAVYYCAAGLRGRQYSNWGQGTQVTVSS , and I need its recorded Fold CXCR7-LP/Null-LP.
4.4
